Where a name gives a salt, the structure may show the parent alone.
parameter: melting point

compound	melting point
CCc1cc2n(c1)-c1cc(-c3cccnc3C)ccc1C1(CC1)N(C)C2=O (as salt: hydrochloride) [Example 197]	165 to 175 °C

Dear colleague, please send me the reported melting point for COCc1cc2n(c1)-c1cc(-c3ccc(C)nc3)ccc1C1(CC1)N(C)C2=O (as salt: hydrochloride) [Example 205] when you can.
113 to 123 °C

Respond only with melting point recorded for CN1C(=O)c2cccn2-c2cc(-c3cccnc3C(F)(F)F)ccc2C12CC2 [Example 36]
160 to 165 °C

Supply recorded melting point for CN1C(=O)c2cccn2-c2cc(-c3cccc(-c4nnn[nH]4)c3)ccc2C12CC2 [Example 45] here.
> 250 °C
